# tested system: recombinant soluble homotrimeric HA of A/northern shoveler/California/HKWF115/2007 (H6N1) (Influenza A virus A/northern shoveler/California/HKWF115/2007 (H6N1))
# assay remarks: HA microarray, BCC supernatant
# details: remark: other sources report otherwise
List of Trimeric HA Binding RLU values.

{"binder": "TCN-537 (3194_D21) (antibody, V domains shown) VH: QVQLQQWGSGLLKPSETLSLTCAVYGGSFRDDYWTWIRQPPGKGLEWIGEINHSGRTNYNPSLKSRVTISVDTSLKQFSLKVISVTAADTAVYYCARGTSHVSRYFDWLPPTNWFDPWGQGTQVTVSS VL: DIVLTQSPGTLSLSPGERATLSCRASQSVSSSYLAWYQQKPGQAPRLVMYGAATRATGIPDRFSGSGSGPDFTLTISRLEPEDFAMYYCQQYGNSPITFGQGTRLEIK", "Trimeric HA Binding RLU": "5210 RLU"}
{"binder": "TCN-533 (5256_A17) (antibody, V domains shown) VH: QVQLVQSGADVKKPGSSVTVSCKASGGSFSNYGINWVRQAPGQGLEWMGGIIPLINAPNYAPKFQGRVTITADMFSNIVSLQLTSLRTDDTAVYYCARRKMTTAIDYWGQGTLVTVSS VL: QPVLSQPPSASASLGASVTLTCTLSSGFDNYQVAWYQQRPGKGPRFVMRVGNGGNVASKGDGIPDRFSVSGSGLNRYLTIKNIQEDDESDYYCGADHGSGNNFVSPYVFGGGTKLTVL", "Trimeric HA Binding RLU": "41400 RLU"}
{"binder": "TCN-532 (5262_H18) (antibody, V domains shown) VH: QVQLQESGPGLVKPSETLSLTCTVSGGSVSSETYYWSWIRQPPGKGLEWIGYIYYIGNTDYRPSLKSRVTISLDTSKNQFSLKLSSVTAADTAVYYCARGAYYDSSGYPAFYIWGQGTMVTVSS VL: QSVLTQPPSVSGAPGQRVTISCTGSSSNIGSDYDVHWYKQLPGTAPKLLIFGNSNRPSGVPDRFSGSKSGTSASLAITGLQAEDEADYYCQSYDSSLSGFHVFGSGTKVTVL", "Trimeric HA Binding RLU": "511 RLU"}
